# ASSAYED TARGET: NADPH oxidase 5 (Homo sapiens) (UniProt Q96PH1)
# Sequence (Q96PH1 whole entry, looked up): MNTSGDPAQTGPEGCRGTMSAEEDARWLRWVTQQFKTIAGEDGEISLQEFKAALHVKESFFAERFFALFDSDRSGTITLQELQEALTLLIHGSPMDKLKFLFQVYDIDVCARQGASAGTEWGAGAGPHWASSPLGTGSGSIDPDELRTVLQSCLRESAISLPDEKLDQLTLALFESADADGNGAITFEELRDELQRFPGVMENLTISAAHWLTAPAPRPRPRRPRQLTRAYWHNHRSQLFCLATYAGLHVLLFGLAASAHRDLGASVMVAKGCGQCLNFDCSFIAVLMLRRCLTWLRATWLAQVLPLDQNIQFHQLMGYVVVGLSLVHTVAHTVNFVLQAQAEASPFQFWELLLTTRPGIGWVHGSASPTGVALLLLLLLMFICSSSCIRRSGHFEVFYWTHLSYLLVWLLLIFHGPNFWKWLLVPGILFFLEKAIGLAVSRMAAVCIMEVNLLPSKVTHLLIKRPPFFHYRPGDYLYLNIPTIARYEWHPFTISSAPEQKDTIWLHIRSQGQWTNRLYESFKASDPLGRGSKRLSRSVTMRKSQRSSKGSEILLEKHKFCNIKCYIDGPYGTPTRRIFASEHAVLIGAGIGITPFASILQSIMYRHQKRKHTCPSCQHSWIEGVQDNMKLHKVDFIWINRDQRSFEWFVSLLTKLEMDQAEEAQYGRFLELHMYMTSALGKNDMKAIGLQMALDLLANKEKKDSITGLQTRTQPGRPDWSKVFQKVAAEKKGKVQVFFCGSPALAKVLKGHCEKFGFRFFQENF
# TEST: NOX5-dependent H2O2 signal modulators, primary screen, NOX inhibitor project, cell-based, HEK293-NOX5, Amplex Red fluorescence (AID 1161)
# ASSAY CONTEXT: HEK293-NOX5, ionomycin, 45 min, higher = more signal
Listed compounds paired with reported z-score
PROPERTY MEASURED: z-score

> print(dat)
                                   compound                            assayed.target  property.measured  assay.value
1  Cc1ccc(S(=O)(=O)N[C@@H]2COC(=O)[C@H](C)COC(=O)CC=C[C@H]2C)cc1  NADPH oxidase 5 (Homo sapiens) (UniProt Q96PH1)            z-score        0.343
2  COC(=O)CC=C[C@H](C)[C@@H](OCc1ccccc1Br)C(C)C  NADPH oxidase 5 (Homo sapiens) (UniProt Q96PH1)            z-score        0.457
3  CCOC(=O)[C@H](CC(C)C)NC(=O)CCC1CC(OC(=O)NCCc2ccc(F)cc2)CC2(CCCC(COC(=O)NCc3ccccc3)O2)O1 (some centres undefined)  NADPH oxidase 5 (Homo sapiens) (UniProt Q96PH1)            z-score        -2.24
4  C=CC[C@]1(C(=O)NCc2ccccc2)N=C(c2ccc(OCCCO)cc2)O[C@H]1c1ccccc1  NADPH oxidase 5 (Homo sapiens) (UniProt Q96PH1)            z-score        -1.96

###

# System: Chordin-like protein 2 (CHRDL2)
# TEST: CHRDL2 small-molecule binders, primary screen, biochemical, small-molecule microarray, 635 nm fluorescence (AID 1126);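 further: printed compound slides probed with Chrdl2 protein at 4 µg/mL for 1 h at 4 C; score merges 667 nm emission intensity with signal to noise over three replicate slides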
# ASSAY CONTEXT: small-molecule microarray binding, fluorescence 635 nm; higher = more signal
PROPERTY MEASURED: composite z-score

COMPOUND	ASSAYED TARGET	ASSAY VALUE
CO[C@@H]1COC(=O)CCC[C@@H](C)[C@H](OC)COC(=O)[C@H](Cc2ccccc2)NC(=O)CC=C[C@H]1C	Chordin-like protein 2 (CHRDL2)	1.39
COCCOC(=O)N1C(=O)[C@@]2(c3cc(C#CCNC(N)=O)ccc31)[C@H](c1ccccc1OCCO)N1[C@H](c3ccccc3)[C@H](c3ccccc3)OC(=O)[C@H]1[C@@H]2C(=O)N1CCN(c2ncccn2)CC1	Chordin-like protein 2 (CHRDL2)	-0.119
COc1ccc(O[C@H]2C=C[C@@H](c3ccccc3)O[C@@H]2COC(=O)N2CCCCC2)cc1	Chordin-like protein 2 (CHRDL2)	0.387
O=C1[C@H]2[C@H]3[C@H](O)[C@H](O)CC(=NOCc4ccccc4)[C@H]3CC[C@H]2C(=O)N1c1ccc(F)cc1F	Chordin-like protein 2 (CHRDL2)	0.0499
COC(=O)[C@@H]1CC[C@H](C)[C@@H](c2ccc(C)cc2)N1C(=O)c1ccc(C=NOC(C)CN2CCCCc3nc(C)c(C)cc32)cc1 (some centres not stated)	Chordin-like protein 2 (CHRDL2)	0.62
COc1ccc(O[C@H]2C=C[C@@H](c3ccccc3)O[C@@H]2COC(=O)CCC(C)=NO[C@H](C)c2cn([C@@H]3COC[C@H]3O)nn2)cc1	Chordin-like protein 2 (CHRDL2)	0.656
CCN(CC)c1ccc(N2CC=CC34O[C@@H]5/C=C\CCC(C)OC(=O)C5[C@H]3C(=O)N(CCCO)[C@@H]4C2=O)cc1 (some centres not stated)	Chordin-like protein 2 (CHRDL2)	-0.618
